The origin of these recorded values is patent US9187411B2.

Molecular target: PPARγ (Homo sapiens)
Construct: made in house; host or cells: Sf9 insect cells (baculovirus), crude cell lysate
Sequence (P37231 whole entry, one chain of several): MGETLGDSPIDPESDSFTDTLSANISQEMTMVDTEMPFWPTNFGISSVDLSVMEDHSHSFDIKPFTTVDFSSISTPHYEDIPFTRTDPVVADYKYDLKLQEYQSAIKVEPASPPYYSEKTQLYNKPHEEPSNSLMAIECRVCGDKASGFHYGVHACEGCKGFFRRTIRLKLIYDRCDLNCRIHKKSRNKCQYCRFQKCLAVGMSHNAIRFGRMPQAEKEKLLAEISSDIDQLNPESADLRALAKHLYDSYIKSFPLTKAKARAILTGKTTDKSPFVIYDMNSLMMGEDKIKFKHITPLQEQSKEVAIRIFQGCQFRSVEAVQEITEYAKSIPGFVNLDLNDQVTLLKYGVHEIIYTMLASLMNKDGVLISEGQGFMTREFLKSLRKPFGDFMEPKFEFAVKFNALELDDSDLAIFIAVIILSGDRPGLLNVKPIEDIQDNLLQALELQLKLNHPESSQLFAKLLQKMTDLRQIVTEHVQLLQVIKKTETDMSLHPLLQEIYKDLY
Experiment: PPAR gamma binding assay (SPA)
Conditions: n=2, read-out: Ki PPAR γ binding
endpoint-name: pKi
Conceptually, pKi converts a concentration in mol/L into minus its log10.

Input: Param readout = pKi; param system = PPARγ (Homo sapiens); param query = CCCc1c(NC(=O)CC(C)(C)C(=O)[O-])cccc1OCCCOc1cc(O)c(-c2ccc(F)cc2)cc1CC.[Na+] [Example 2] ; response: value
Output: 5.86

----------
Molecular target: PPARδ (Homo sapiens, UniProt Q03181)
Sequence (Q03181 1-441): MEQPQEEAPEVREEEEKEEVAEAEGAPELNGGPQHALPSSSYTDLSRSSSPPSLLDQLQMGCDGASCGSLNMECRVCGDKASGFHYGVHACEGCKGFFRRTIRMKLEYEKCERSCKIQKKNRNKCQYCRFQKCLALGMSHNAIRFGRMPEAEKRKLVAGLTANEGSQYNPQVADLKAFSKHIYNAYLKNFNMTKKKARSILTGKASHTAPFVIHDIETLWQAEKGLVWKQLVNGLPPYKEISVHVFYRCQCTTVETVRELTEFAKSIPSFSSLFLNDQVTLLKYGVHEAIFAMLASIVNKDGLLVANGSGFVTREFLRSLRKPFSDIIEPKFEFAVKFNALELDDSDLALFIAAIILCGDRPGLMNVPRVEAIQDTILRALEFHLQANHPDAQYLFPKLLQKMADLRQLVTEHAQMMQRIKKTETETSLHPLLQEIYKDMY
Sequence (P19793 1-462 partner): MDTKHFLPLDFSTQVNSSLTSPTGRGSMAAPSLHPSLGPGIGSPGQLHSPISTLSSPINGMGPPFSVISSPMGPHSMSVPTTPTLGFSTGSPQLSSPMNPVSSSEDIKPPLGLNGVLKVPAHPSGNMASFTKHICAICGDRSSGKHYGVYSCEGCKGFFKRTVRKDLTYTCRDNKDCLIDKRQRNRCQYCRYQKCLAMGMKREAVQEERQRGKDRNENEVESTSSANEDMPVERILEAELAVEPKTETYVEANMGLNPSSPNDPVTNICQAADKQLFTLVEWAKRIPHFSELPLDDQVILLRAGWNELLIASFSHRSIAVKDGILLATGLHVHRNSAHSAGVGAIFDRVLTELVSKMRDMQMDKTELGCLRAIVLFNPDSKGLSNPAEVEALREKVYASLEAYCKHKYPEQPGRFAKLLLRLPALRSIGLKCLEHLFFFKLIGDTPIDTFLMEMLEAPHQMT
Assay: PPAR delta binding assay (SPA)
Details: tritiated GW2331, n=4, read-out: Ki PPAR δ binding
pKi: −log10 of the molar value.
endpoint-name: pKi

Input: What value of pKi on PPARδ (Homo sapiens, UniProt Q03181) does CCCc1c(NC(=O)CC(C)(C)C(=O)[O-])cccc1OCCCOc1cc(O)c(-c2ccc(F)cc2)cc1CC.[Na+] [Example 2] have?
Output: < 5.05

----------
Experiment: Exposure (AUC) in the LDLr KO mouse atherosclerosis study
Details: male, LDLr KO (JAX #002207), in vivo, LDLr KO mice, 3 mg/kg BID oral gavage
endpoint-name: AUC

Input: Which value of AUC has been reported for "CCCc1c(NC(=O)CC(C)(C)C(=O)[O-])cccc1OCCCOc1cc(O)c(-c2ccc(F)cc2)cc1CC.[Na+]" in the records?
Output: 1110 ng·h/mL
